Cited source for all entries: the RNAGym collection of RNA variant scans (doi:10.1093/molbev/msab373)

B1: Azoarcus group I ribozyme (parent)
chain: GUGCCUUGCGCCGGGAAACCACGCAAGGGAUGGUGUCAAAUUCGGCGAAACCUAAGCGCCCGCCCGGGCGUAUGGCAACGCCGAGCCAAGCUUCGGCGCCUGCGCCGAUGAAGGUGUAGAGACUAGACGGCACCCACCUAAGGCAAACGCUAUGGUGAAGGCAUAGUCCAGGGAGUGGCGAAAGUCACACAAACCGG

variants of: B1; experiment: reverse-splicing fitness (ratio to wild type); higher = more active; in vitro selection; Mg2+ level not given
Metric: reverse-splicing fitness

Mutation spec	Metric	Endpoint value
A111G A120C A145G C150G C169G U176C	reverse-splicing fitness	0.00529
A120G C169U U176G	reverse-splicing fitness	0.0211
C82G A111C A120U C150U C169U U176A	reverse-splicing fitness	0.00688
C82G A111U C150U C169A U176C	reverse-splicing fitness	0.0148
C82U A111G A120G A145U C150A U176G	reverse-splicing fitness	0.00406
C82G A120G C169A U176A	reverse-splicing fitness	0.0209
C82A A111G A120C A145G C150U C169G U176G	reverse-splicing fitness	0.00629
C82U A111U A120C C150G U176C	reverse-splicing fitness	0.00725
C82U A120U A145G C150A U176C	reverse-splicing fitness	0.0141
C82U A111U A120G A145C C150G U176A	reverse-splicing fitness	0.00493
C82U A111U A120C C150G C169G U176C	reverse-splicing fitness	0.00458
C82G A111U C150G U176G	reverse-splicing fitness	0.0043
A111G A120G A145G C169G	reverse-splicing fitness	0.329
C82U A111G A120G C150U C169U	reverse-splicing fitness	0.00996
A111G A120U A145U C150U C169U U176A	reverse-splicing fitness	0.0131
C82A A111U A120G C150G U176G	reverse-splicing fitness	0.00319
C82A A111C A120U A145G C150A U176C	reverse-splicing fitness	0.00799
A111U A145U C150A	reverse-splicing fitness	0.379
C82U A111G A120U A145U C150A C169G U176G	reverse-splicing fitness	0.00148
C82A A111U A120C A145G C150A U176C	reverse-splicing fitness	0.0241
C82U A111U A145C C150A C169U U176C	reverse-splicing fitness	0.00882
C82U A111G A120C A145G C150U U176A	reverse-splicing fitness	0.0138
A111G A120U A145C C150G U176G	reverse-splicing fitness	0.0047
C82A A111C A120U A145U C150U U176C	reverse-splicing fitness	0.00936
C82G A111U A120U C150G C169A U176G	reverse-splicing fitness	0.00291
C82U A111G A120U A145U C150A C169U U176A	reverse-splicing fitness	0.00278
C82U A111C A120C A145C C150U C169U U176A	reverse-splicing fitness	0.0145
C82G A111C A120U A145C C150G C169A	reverse-splicing fitness	0.00373
C82G A111G A120U A145C C150A C169U	reverse-splicing fitness	0.00246
C82G A120G A145C C150A C169A U176C	reverse-splicing fitness	0.00516
C150U U176A	reverse-splicing fitness	0.814
C82U A111U A120C A145C C150U C169G U176C	reverse-splicing fitness	0.00936
C82G A120U A145U C150A C169G U176A	reverse-splicing fitness	0.00221
C82G A111C A145U C150G C169G U176A	reverse-splicing fitness	0.00806
C82A A111U A120C C150A C169G	reverse-splicing fitness	0.0103
C82U A111U A120U A145G C150G C169U U176G	reverse-splicing fitness	0.00345
A111C A145G C169G	reverse-splicing fitness	0.0737
C82A A120U A145G C150G U176G	reverse-splicing fitness	0.00433
C82U A145G C150A C169U U176C	reverse-splicing fitness	0.0152
C82G C150G C169G U176C	reverse-splicing fitness	0.00598
C82A A111G A120U A145G C150A U176A	reverse-splicing fitness	0.00782
C82U A111C A120U A145U C150G U176G	reverse-splicing fitness	0.00316
C82U A111C A145C C150U C169G U176C	reverse-splicing fitness	0.0168
C82U A111C A120U A145C	reverse-splicing fitness	0.0226
C82G A120U A145U C150U C169U U176C	reverse-splicing fitness	0.00342
A111U A120C A145G C150A C169U U176G	reverse-splicing fitness	0.00691
